molecular target: uPAR-expressing HEC-265 human endometrial adenocarcinoma cells (Homo sapiens, UniProt Q03405)
Sequence (Q03405 23-335): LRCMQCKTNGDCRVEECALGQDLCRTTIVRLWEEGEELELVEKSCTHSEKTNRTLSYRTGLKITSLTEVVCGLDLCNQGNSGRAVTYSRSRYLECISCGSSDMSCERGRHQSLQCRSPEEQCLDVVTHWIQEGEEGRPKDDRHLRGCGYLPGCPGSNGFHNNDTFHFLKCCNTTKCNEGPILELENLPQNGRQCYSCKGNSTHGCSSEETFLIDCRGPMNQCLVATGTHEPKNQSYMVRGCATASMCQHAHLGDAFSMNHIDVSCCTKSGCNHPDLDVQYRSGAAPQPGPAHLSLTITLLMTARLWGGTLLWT
pIC50: −log10 of the molar value. *1 amine or outer side, *2 acyl side, *3 side chain or, on linkers, in order; H or OH if unused. Where a SMILES comes first, the peptide text is derived from it. Bridges are numbered along the chain shown (N, C = ends). [ ]: non-standard residue; d: D form. The star is where a group is joined. X6 = O=C(O)CN1CCN(CC(=O)O)CCN(CC(=O)NCCCOCCOCCOCCCN*)CCN(CC(=O)O)CC1; Suc = O=C(CCC(=O)[*:2])[*:1]; Nle = CCCC[C@H](N)C(=O)O
Attribute: pIC50

CCCC[C@H](NC(=O)CCC(=O)NCCCOCCOCCOCCCNC(=O)CN1CCN(CC(=O)O)CCN(CC(=O)O)CCN(CC(=O)O)CC1)C(=O)N[C@@H](CC(=O)O)C(=O)N[C@@H](CC(C)C)C(=O)N[C@H]1CSSC[C@@H](C(N)=O)NC(=O)[C@H](CC(C)C)NC(=O)[C@H]([C@@H](C)CC)NC(=O)[C@H](C)NC(=O)[C@@H]2CCCN2C(=O)[C@H](Cc2ccccc2)NC(=O)[C@H](Cc2ccc(O)cc2)NC(=O)[C@H](CCSC)NC(=O)[C@H](CCCNC(=N)N)NC1=O [UPAR-347] ({X6-Suc}-[Nle]DLCRMYFPAILC-NH2; disulfide 4-13)
≥ 8.00

Next compound, pIC50 to be filled in.
Enquiry: Suppose we examine the compound CCCC[C@@H]1NC(=O)[C@H](CCCNC(=N)N)NC(=O)[C@@H](NC(=O)[C@H](CC(C)C)NC(=O)[C@H](CC(=O)O)NC(C)=O)CSSC[C@@H](C(N)=O)NC(=O)[C@H](CC(C)C)NC(=O)[C@H]([C@@H](C)CC)NC(=O)[C@H](C)NC(=O)[C@@H]2CCCN2C(=O)[C@H](Cc2ccccc2)NC(=O)[C@@H](Cc2ccc(O)cc2)NC1=O [UPAR-198] (Ac-DLCR[Nle][dY]FPAILC-NH2; disulfide 3-12) ; what pIC50 value has been reported?
Return: ≤ 6.90
